Ok so here's the combined literature set: Ki for Carbonic anhydrase 2 (Homo sapiens, UniProt P00918).

1. COc1ccc(S(=O)(=O)N(Cc2ccccc2[N+](=O)[O-])C(C)C(=O)NO)cc1 (stereo unspecified)	> 0.2 µM

With Carbonic anhydrase 2 (Homo sapiens, UniProt P00918) as the test system, CCCN(CCC)S(=O)(=O)NC(=O)OC(C)(C)C showed Ki of > 200 µM

The molecule CC(C)(C)n1c(=O)cc(-c2cc3ccccc3s2)[s+]1[O-] (stereo unspecified) , tested on Carbonic anhydrase 2 (Homo sapiens, UniProt P00918), showed Ki of > 10 µM

The reported Ki value, Carbonic anhydrase 2 (Homo sapiens, UniProt P00918), for CCOC(=O)/C(O)=C/C(=O)/C=C/c1ccc(NC(=O)c2ccccc2)cc1 reads > 10 µM

Observed Ki, Carbonic anhydrase 2 (Homo sapiens, UniProt P00918), CC(C)(C)N1C(=O)C=C(Cl)S1(=O)=O : > 10 µM

Param item: CC1(C)O[C@@H]2[C@@H](CO[C@@]3(C(=O)NNS(N)(=O)=O)OC(C)(C)O[C@@H]23)O1 ; param system: Carbonic anhydrase 2 (Homo sapiens, UniProt P00918); output Ki: > 100 µM
